Values compiled from PubChem BioAssay.

Experiment: E. coli acrAB mutant growth effects, primary screen, E. coli filamentation inducers, strain DRC39, OD650, 48 h (AID 1179);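 note: screen aims at cell division blockers that make cells filament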
Conditions: E. coli DRC39 delta-acrAB growth, higher = more signal, called active from +8 up or from −8 down
Kind request: treat -0.2 as inclusive, so z-score at -0.2 or higher is met, anything lower is not met.

MOLECULE: CC(=O)n1cc(C(O)C2C=CC3C(=O)N(c4ccccc4)C(=O)C3N2Nc2ccc(C(C)C)cc2)c2ccccc21 (configuration not stated)
CATEGORY: met
--
MOLECULE: C=CCC(OC(C)=O)[C@@H]1[C@@H](N(Cc2ccc(-c3ccccc3)cc2)C(=O)Cc2ccc(F)cc2)c2cc(OCCCO)ccc2N1C(=O)Cc1ccc2ccccc2c1 (some centres not stated)
CATEGORY: met
--
MOLECULE: CCOC(=O)C[C@H]1[C@H](OC(=O)c2cc3ccccc3oc2=O)[C@@H](NC(=O)c2ccc3ccccc3c2)c2cc(OCCCO)ccc2N1C(=O)Cc1ccc(OC)cc1
CATEGORY: not met
--
MOLECULE: Cc1ccc(S[C@]2(C(=O)NCC(C)C)CC(=O)N(C3Cc4ccccc4C3)[C@@H]2c2ccc(CO)cc2I)cc1
CATEGORY: met

Q. Could you tell me if the measured z-score of COc1cc(NN2C(C(O)c3cc(OC)c(OC)c(OC)c3)C=CC3C(=O)N(c4ccccc4)C(=O)C32)cc(OC)c1OC (configuration not stated) reaches -0.2 or more?
A. not met

Q. Decide: is the reported value of z-score for "C[C@]1(C(=O)O)c2ccccc2C(=O)N(Cc2ccc(OC(F)(F)F)cc2)[C@H]1c1ccc(CO)cc1" equal to or greater than -0.2?
A. met

Q. Evaluate COc1cc(NN2C(C(O)c3ccccc3)C=CC3C(=O)N(C)C(=O)C32)cc(OC)c1OC (configuration not stated) : z-score at minimum -0.2?
A. not met

====

Experiment: binders of probe aFSTL3 on microarray, primary screen, stem cell growth factor project, biochemical, small-molecule microarray, fluorescence 635/667 (AID 1064);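 note: measures binding of the biotinylated anti-FSTL3 antibody to printed compounds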
Conditions: higher = more signal
Use t when the recorded composite z-score is no lower than 0.2; use f when it is lower.

Reference set, count: 5
COMPOUND: O=C(O)[C@H]1C[C@H]2C(=O)N[C@@H](Cc3ccccc3)C(=O)N2[C@H]1c1cccc(OCCO)c1
CATEGORY: f
//
COMPOUND: CCOC(=O)C1=C[C@@H](c2ccccc2)N(S(=O)(=O)c2ccc(C)cc2)[C@H]1c1ccccc1
CATEGORY: f
//
COMPOUND: Cc1ccccc1C(O)C1C=CC2C(=O)NC(=O)C2N1Nc1ccc(Cl)cc1Cl (configuration not stated)
CATEGORY: t
//
COMPOUND: COC(=O)[C@@]1(Cc2ccccc2)[C@H]2c3cc(C(=O)N(C)C)n(CCn4cc([N+](=O)[O-])nc4C)c3C[C@H]2CN1C(=O)c1ccccc1
CATEGORY: f
//
COMPOUND: [N-]=[N+]=Nc1ccccc1C[C@]1(C(=O)NCc2ccccc2)COC(c2ccc(OCCCO)cc2)=N1
CATEGORY: f

Q. Please indicate if the recorded composite z-score for "CN(C)CCCCNC(=O)[C@H]1C[C@H]2C(=O)N[C@@H](CCCC[N+](C)(C)C)C(=O)N2[C@H]1c1ccc(O)cc1" meets or exceeds 0.2.
A. f

Q. Is composite z-score for "O=C(NCCN1CCOCC1)[C@@H]1c2ccccc2C(=O)N(Cc2ccccc2)[C@H]1c1ccc(CO)cc1" at or above 0.2?
A. t

Q. Exam item: decide whether the reported composite z-score for "C=C(/C(=C/C[C@@H](OC(C)=O)c1ccc(CO)o1)c1cc(C(=O)OC)ccc1OC)C(C)C" is at least 0.2.
A. f

Q. Assess whether reported composite z-score for C=CC1c2cc(O)c(OC)cc2CCN1Cc1ccc([N+](=O)[O-])o1 (configuration not stated) sits at 0.2 or higher.
A. t

Q. Does composite z-score meet or surpass 0.2 for "CC(C)C(=C=CC[C@@H](O)c1cccc(OCCO)c1)C[C@@H](O)COCc1ccccc1" ?
A. f

====

For each of the compounds below, state its z-score.
Target: Homeobox protein Hox-A13 (Mus musculus)
Assay: inhibitors of HoxA13-DNA binding, primary screen, biochemical, fluorescence polarization, labeled oligonucleotide (AID 1185)
Settings: 15 min, higher = more signal, called active from +8 up or from −8 down
One number for each entry.

COMPOUND: CCCNC(=O)[C@@]1(Sc2ccc(C)cc2)CC(=O)N(C2CCCCC2)[C@@H]1c1ccc(CO)cc1I
z-score: -4.72
//
COMPOUND: Cc1nc2cc(Br)ccc2c(=O)n1Cc1cccc(O)c1
z-score: 0.464
//
COMPOUND: CN1C(=O)[C@@H]2[C@@H](CC(COc3ccccc3)=C([C@H](O)CCc3ccccc3)[C@@H]2CO)C1=O
z-score: -6.39
//
COMPOUND: CC(C)=CCCC(C)=CC(O)C1C=CC2C(=O)N(c3ccccc3)C(=O)C2N1Nc1ccccc1F (stereo not drawn)
z-score: -3.38
//
COMPOUND: CO[C@H]1O[C@H](CO)[C@@H](OC(=O)CCc2ccccc2)[C@H](OC(=O)c2cc3ccccc3[nH]2)[C@H]1OC(=O)c1cc2ccccc2[nH]1
z-score: -0.797
//
COMPOUND: CCC(CC)C(O)C1C=CC2C(=O)N(c3ccccc3)C(=O)C2N1Nc1ccc([N+](=O)[O-])cc1 (stereo not drawn)
z-score: -3.49
//
COMPOUND: CCOC(=O)C[C@H]1[C@H](OC(=O)c2ccc(-c3ccccc3)cc2)[C@@H](NC(=O)CC(C)C)c2cc(OCCCO)ccc2N1C(=O)c1ccccc1
z-score: -3.33

With those in mind, consider the next compound.
Q. Lab note: record z-score of "COC(=O)[C@@]1(Cc2ccccc2CN=[N+]=[N-])N=C(c2ccc(OCCCO)cc2)O[C@H]1c1ccccc1CN=[N+]=[N-]" tested on Homeobox protein Hox-A13 (Mus musculus).
A. 0.87

====

Target: Torsin-1A (Homo sapiens)
Assay: small-molecule binders of mutant TOR1A in lysate, primary screen, cell lysate, small-molecule microarray, COS7 lysate, 635/667 nm fluorescence (AID 1150);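 note: score pools 667 nm emission and signal to noise measuring lysate protein binding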
Conditions: COS7 hTOR1A mutant lysate, 635 nm fluorescence, higher = more signal
For each record, write down the corresponding composite z-score.
Numbers only.

Can you give me composite z-score for all of these, one by one?
1. COc1ccc([Si](C)(C)[C@H]2[C@H](CCO)O[C@@]3(C(=O)N(Cc4ccccc4)c4ccc(N5C(=O)c6ccccc6Oc6ccccc65)cc43)[C@@H]2C)cc1
2. CC(C)C(CO)N1C(=O)[C@@H]2[C@H]3C(=O)OCC=C[C@H]3OC23C=CCN(C(C)(C)C)C(=O)[C@@H]13 (some centres undefined)
3. CC1(C)C(=O)C(c2ccccc2)=C2CN3C(=O)N(CCc4ccccc4)C(=O)C3(Cc3ccc(F)cc3)C=C21 (centres undefined)
4. COCCCNC(=O)[C@@]1(Sc2ccc(C)cc2)CC(=O)N(Cc2ccccc2Cl)[C@@H]1c1ccc(CO)cc1I

A.
0.102
-0.934
0.0142
-0.213

====

Assay: basal HepG2 mitochondrial membrane potential changes, profiling panel, cell-based, JC-1 fluorescence, 24 h, 100 nL compound (AID 1167); note: test concentration not given here
Details: higher = more signal
Answer 0 if z-score is under 1, and 1 if it is 1 or more.

Observe how each entry below is paired with its result.
COMPOUND: COC(=O)[C@@]1(Cc2ccc(OC)cc2)[C@H]2c3cc(C(=O)N4CCCC4)n(Cc4ccc(OC(F)(F)F)cc4)c3C[C@H]2CN1C(=O)c1ccccc1
CATEGORY: 0

COMPOUND: C[C@]1(C(=O)O)c2ccccc2C(=O)N(Cc2ccc(OC(F)(F)F)cc2)[C@H]1c1ccc(CO)cc1
CATEGORY: 0

COMPOUND: COCC1C2CC[C@H]3C(OCc4ccc(OC)cc4)OC[C@]4(C)[C@H]3C2=C(CN4C(=O)OC(C)(C)C)[C@H](C)C1COC (some centres undefined)
CATEGORY: 1

COMPOUND: C=CC1c2cc(O)c(OC)cc2CCN1Cc1ccc([N+](=O)[O-])o1 (centres undefined)
CATEGORY: 0

COMPOUND: CCCNC(=O)[C@@]1(Sc2ccc(C)cc2)CC(=O)N(C2CCCCC2)[C@@H]1c1ccc(CO)cc1I
CATEGORY: 0

Q. Reported z-score at or above 1? "COCCOC(=O)N1C(=O)[C@@]2(c3cc(C#CCCO)ccc31)[C@H](C(N)=O)[C@H]1C(=O)O[C@H](c3ccccc3)[C@H](c3ccccc3)N1[C@@H]2c1ccc(OCCO)cc1"
A. 0

Q. I'd appreciate it if you could say whether "CCOC(=O)C1=CC[C@@H](c2ccccc2)N(S(=O)(=O)c2ccc(C)cc2)[C@H]1C=Cc1ccccc1" has z-score at least equal to 1.
A. 1
